Measured target: MK2 (Homo sapiens)
Experiment summary: MK2 degradation in human THP-1 monocytic cells (MSD, 24 h)
Assay type: cell-based
Design: endogenous in cells
Particulars: THP-1 cells, read-out: MK2 MSD THP-1 degradation 24 h GMean External Abs DC50

{"columns": ["Compound", "DC50"],
 "data": [
  ["C[C@@H]1Cc2oc(-c3ccnc(-c4ccc(N5CCN(CC6CCN(c7cccc8c7n(C)c(=O)n8C7CCC(=O)NC7=O)CC6)CC5)nc4)c3)cc2C(=O)N1 (some centres unmarked)", "> 100 nM"],
  ["C[C@@H]1CNc2c(sc3ccc4nc(N5CCC6(CCN(CC7CCN(c8ccc9c(c8)n(C)c(=O)n9C8CCC(=O)NC8=O)CC7)CC6)CC5)ccc4c23)C(=O)N1 (some centres unmarked)", "> 100 nM"],
  ["Cn1c(=O)n(C2CCC(=O)NC2=O)c2ccc(CCCN3CCN(c4cccc(-c5ccc(-c6cc7c([nH]6)CCNC7=O)cn5)c4)CC3)cc21 (centres unmarked)", "> 100 nM"],
  ["C[C@@H]1CN(C)c2c(sc3ccc4nc(-c5ccc(N6CCN(CCCc7ccc8c(c7)n(C)c(=O)n8C7CCC(=O)NC7=O)CC6)cc5)ccc4c23)C(=O)N1 (some centres unmarked)", "1 to 10 nM"],
  ["C[C@@H]1CNc2c(sc3ccc4nc(-c5ccc(N6CCN(CCCCCc7ccc8c(c7)n(C)c(=O)n8C7CCC(=O)NC7=O)CC6)cc5)ccc4c23)C(=O)N1 (some centres unmarked)", "< 1 nM"]
]}

---

Measured target: MK2 (Homo sapiens, UniProt P49137)
Sequence (P49137 whole entry): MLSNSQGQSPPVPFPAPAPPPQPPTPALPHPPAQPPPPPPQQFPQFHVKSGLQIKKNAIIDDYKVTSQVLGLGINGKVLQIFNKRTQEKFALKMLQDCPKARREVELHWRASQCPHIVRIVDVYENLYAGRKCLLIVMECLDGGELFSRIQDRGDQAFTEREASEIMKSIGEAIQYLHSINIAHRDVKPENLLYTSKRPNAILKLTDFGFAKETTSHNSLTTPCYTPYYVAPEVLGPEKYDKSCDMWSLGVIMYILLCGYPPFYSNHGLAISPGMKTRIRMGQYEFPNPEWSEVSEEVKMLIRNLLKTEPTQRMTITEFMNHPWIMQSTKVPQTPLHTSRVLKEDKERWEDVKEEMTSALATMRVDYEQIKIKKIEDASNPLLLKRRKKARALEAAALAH
Experiment summary: MK2 degradation in human SW1353 cells (MSD, 24 h)
Assay type: cell-based
Set-up: endogenous in cells; host or cells: SW-1353 (ATCC HTB-94)
Particulars: read-out: MK2 MSD SW1353 degradation 24 h GMean External Abs DC50

{"columns": ["Molecule", "Measured target", "DC50"],
 "data": [
  ["C[C@@H]1CNc2c(sc3ccc4nc(N5CCN(C6CC7(CCN(c8ccc9c(c8)n(C)c(=O)n9C8CCC(=O)NC8=O)CC7)C6)CC5)ccc4c23)C(=O)N1 (some centres unmarked) [Compound I-451]", "MK2 (Homo sapiens, UniProt P49137)", "< 1 nM"],
  ["CCc1cc(-c2cc(-c3cc4c([nH]3)C3(CC3)CNC4=O)ccn2)cc(CC)c1N1CCN(CC2CCN(c3ccc4c(c3)n(C)c(=O)n4C3CCC(=O)NC3=O)CC2)CC1 (centres unmarked) [Compound I-448]", "MK2 (Homo sapiens, UniProt P49137)", "1 to 10 nM"],
  ["C[C@@H]1CNc2c(sc3ccc4nc(N5CCC(CN6CCN(c7ccc8c(c7)n(C)c(=O)n8C7CCC(=O)NC7=O)CC6)CC5)ccc4c23)C(=O)N1 (some centres unmarked) [Compound I-264]", "MK2 (Homo sapiens, UniProt P49137)", "1 to 10 nM"],
  ["C[C@@H]1Cc2[nH]c(-c3ccnc(-c4ccc(N5CCC(CN6CCC(c7ccc8c(c7)n(C)c(=O)n8C7CCC(=O)NC7=O)CC6)CC5)cc4)c3)cc2C(=O)N1 (some centres unmarked) [Compound I-263]", "MK2 (Homo sapiens, UniProt P49137)", "< 1 nM"],
  ["C[C@@H]1CNc2c(sc3ccc4nc(N5CCCN(CCC6CCN(c7ccc8c(c7)n(C)c(=O)n8C7CCC(=O)NC7=O)CC6)CC5)ccc4c23)C(=O)N1 (some centres unmarked) [Compound I-444]", "MK2 (Homo sapiens, UniProt P49137)", "1 to 10 nM"]
]}
